Known Bliss excess of a selection of compounds
Tested on: BHT-101 (Thyroid Gland Carcinoma);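 further: after 72 h of two-drug dosing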
Assay: Bliss excess, mean over the matrix (fraction); higher = more synergy
// no unit string in output, number only

Use these answered entries as a reference point.
Cc1cc2ncnn2cc1Nc1ncc2c(n1)n(C1CCOCC1)c(=O)n2C [AZD7648] + C=CCn1c(=O)c2cnc(Nc3ccc(N4CCN(C)CC4)cc3)nc2n1-c1cccc(C(C)(C)O)n1 [AZD1775] (first compound max 10 µM, partner max 1 µM) :: 0.0005
COc1cccc(OCCCN)c1-c1cc(Nc2cnc(C#N)cn2)n[nH]1 [Prexasertib] + CN(C)CCCOc1ccc(-c2ccc3ncc4c(c3c2)n(C2CCOCC2)c(=O)n4C)cn1 [AZD0156] (first compound max 1 µM, 7x7, partner max 1 µM) :: 0.0275
C=CCn1c(=O)c2cnc(Nc3ccc(N4CCN(C)CC4)cc3)nc2n1-c1cccc(C(C)(C)O)n1 [AZD1775] + C[C@@H]1COCCN1C2=NC(=NC(=C2)C3(CC3)[S@](=N)(=O)C)C4=C5C=CNC5=NC=C4 [AZD6738] (first compound max 1 µM, partner max 10 µM) :: 0.0094

Lab note: next compound to report on.
Looking up COc1cccc(OCCCN)c1-c1cc(Nc2cnc(C#N)cn2)n[nH]1 [Prexasertib] + CCc1c2c(nc3ccc(O)cc13)-c1cc3c(c(=O)n1C2)COC(=O)[C@]3(O)CC [SN-38] (first compound max 1 µM, 7x7, partner max 0.3 µM) , I see its Bliss excess listed as 0.0077
